- Test system: CAKI-1
- ASSAY_SUMMARY: Anti-cancer activity against human CAKI-1 cells incubated for 72 hrs by Cell Titer Glo assay
- Type: functional, cell-based
- CONDITION_PARAMETERS: CAKI-1, 72 h
MEASURE: pIC50
Remember the convention: pIC50 equals -log10 of concentration in molar.

Form field pIC50, entry H-KKKKLKKILKKLFQFINQLDNQLQDIKQNK-NH2 : 6.00

---

- Tested on: PC-3
- ASSAY_SUMMARY: Anti-cancer activity against human PC-3 cells incubated for 72 hrs by Cell Titer Glo assay
- Format: functional, cell-based
- CONDITION_PARAMETERS: PC-3, 72 h
MEASURE: IC50 (µM)
Write it as a number; the unit µM goes unstated.

Form field IC50 for item H-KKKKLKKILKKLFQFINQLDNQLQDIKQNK-NH2 on PC-3: 1

From: ChEMBL document CHEMBL5576140
